# Tgt: human Oxytocin (hOT) receptor (Homo sapiens)
# Construct: expressed in transfected cells; host or cells: HEK293EBNA (membranes)
# Sequence (P30559 1-389): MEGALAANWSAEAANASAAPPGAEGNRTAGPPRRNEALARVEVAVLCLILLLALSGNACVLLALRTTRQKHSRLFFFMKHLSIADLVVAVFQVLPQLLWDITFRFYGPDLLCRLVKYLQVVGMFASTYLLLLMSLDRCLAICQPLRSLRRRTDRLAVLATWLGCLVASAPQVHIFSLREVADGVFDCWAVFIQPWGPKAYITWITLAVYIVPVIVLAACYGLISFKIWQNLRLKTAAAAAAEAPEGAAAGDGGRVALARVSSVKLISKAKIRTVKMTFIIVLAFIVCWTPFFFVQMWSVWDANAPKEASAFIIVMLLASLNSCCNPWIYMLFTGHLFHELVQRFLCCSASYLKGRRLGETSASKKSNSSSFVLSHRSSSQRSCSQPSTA
# Protocol Notes: In vitro competition binding assay on hOT receptor with scintillation proximity assay ([125I]-OVTA)
# Applied Conditions: membranes from HEK293EBNA cells expressing the hOT receptor; 0.2 nM [125I]-OVTA; SPA; read-out: Binding Affinity hOT-R (Ki [nM])
Metric Name: Ki (nM)

Known Ki results, listed for orientation:
>>> quantitative_readout("CON=C1CC(CC(=O)NC[C@H](O)c2ccccc2)N(C(=O)c2ccc(-c3ccccc3)cc2)C1 (stereo partly drawn)")
67
>>> quantitative_readout("CON=C1C[C@@H](CC(=O)OC)N(C(=O)c2ccc(-c3ccccc3)cc2)C1")
37

P: CON=C1C[C@@H](CC(=O)OC2CCCC2)N(C(=O)c2ccc(-c3ccccc3)cc2)C1
Q: CON=C1C[C@@H](CCC(=O)NC[C@@H](O)c2ccccc2)N(C(=O)c2ccc(-c3ccccc3)cc2)C1
Pick one: P or Q . Which one has the lower reported Ki? Write down the label attached to your selection.
P
